Target: human PD-L1/His fusion protein (human, UniProt Q9NZQ7 19-239)
Sequence (Q9NZQ7 19-239 limits assumed): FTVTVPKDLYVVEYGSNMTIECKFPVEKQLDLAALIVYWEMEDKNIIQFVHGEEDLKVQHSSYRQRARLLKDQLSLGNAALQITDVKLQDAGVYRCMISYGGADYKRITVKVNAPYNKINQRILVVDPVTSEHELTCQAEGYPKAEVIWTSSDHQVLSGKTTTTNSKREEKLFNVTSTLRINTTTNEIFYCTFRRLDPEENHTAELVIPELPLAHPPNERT
Assay: BLI Octet RED96, antibody on AHC sensor, single conc. PD-L1/His; test group 3
# reported koff; entries follow
A number alone suffices; assume s⁻¹.

Binder	koff (s⁻¹)
HuEM0005-86-13 (antibody, human IgG1, V domains shown) VH: EVQLVQSGAEVKKPGASVKVSCKTSGYTFTTYGINWVRQAPGQGLEWIGYIYIGNGYTEYNEKFKGKATLTSDPSTRTAYMELSSLRSDDTAVYYCARDLMVIAPKTMDYWGQGTTVTVSS VL: DIQMTQSPSSVSASVGDRVTITCKASQDVGTAVAWYQQKPGKSPKLLIYWASTRHTGVPDRFTGSGSGTDFTLTISSLQPEDFATYFCQQYSSYPYTFGGGTKVEIK	0.00119
HuEM0005-86-14 (antibody, human IgG1, V domains shown) VH: EVQLVQSGAEVKKPGASVKVSCKASGYTFTTYGINWVRQAPGQGLEWIGYIYIGNGYTEYNEKFKGRVTLTSDPSTRTAYMELSSLRSDDTAVYYCARDLMVIAPKTMDYWGQGTTVTVSS VL: DIQMTQSPSSVSASVGDRVTITCKASQDVGTAVAWYQQKPGKSPKLLIYWASTRHTGVPDRFTGSGSGTDFTLTISSLQPEDFATYFCQQYSSYPYTFGGGTKVEIK	0.000838
EM0005-86c-G55A (antibody, human IgG1, V domains shown, Chimeric antibody with G55A (Kabat) in CDR-H2; also called HuEM0005-86-G55A) VH: QVQLQQSGAELVRPGSSVKMSCKTSGYTFTTYGINWVKQRPGQGLEWIGYIYIGNAYTEYNEKFKGKATLTSDPSSRTAYMQLSSLTSEDSAIYFCARDLMVIAPKTMDYWGQGTSVTVSS VL: DIQMNQSHKFMSTSVGDRVSITCKASQDVGTAVAWYQQKPGQSPKLLIYWASTRHTGVPDRFTGGGSGTDFTLTISNVQSEDLADYFCQQYSSYPYTFGGGTKLEMK	0.00111
HuEM0005-86-5 (antibody, human IgG1, V domains shown) VH: EVQLVQSGAEVKKPGASVKVSCKASGYTFTTYGINWVRQAPGQGLEWIGYIYIGNGYTEYNEKFKGKATLTSDTSTSTAYMELSSLRSDDTAVYYCARDLMVIAPKTMDYWGQGTTVTVSS VL: DIQMTQSPSSVSASVGDRVTITCKASQDVGTAVAWYQQKPGKAPKLLIYWASTRHTGVPDRFTGSGSGTDFTLTISSLQPEDFATYYCQQYSSYPYTFGGGTKVEIK	0.00124

Proceeding to the next binder to report its koff.
May I ask what koff has been recorded for EM0005-mAb86c (antibody, human IgG1, kappa, V domains shown, Chimeric full-length IgG1; also called EM0005-86c; EM0005-86C) VH: QVQLQQSGAELVRPGSSVKMSCKTSGYTFTTYGINWVKQRPGQGLEWIGYIYIGNGYTEYNEKFKGKATLTSDPSSRTAYMQLSSLTSEDSAIYFCARDLMVIAPKTMDYWGQGTSVTVSS VL: DIQMNQSHKFMSTSVGDRVSITCKASQDVGTAVAWYQQKPGQSPKLLIYWASTRHTGVPDRFTGGGSGTDFTLTISNVQSEDLADYFCQQYSSYPYTFGGGTKLEMKR ?
0.00103
